Below: a set of entries, each annotated with reported TI % at Day-35.
# Tested on: SCOV-3 human ovarian cancer
# cond: in vivo

| compound | TI % at Day-35, % |
| --- | --- |
| C[C@]12CC[C@H]3[C@@H](CCC4=CC(=O)NCC[C@@]43C)[C@@H]1CC[C@@H]2OC(=O)CCOc1ccc(N(CCCl)CCCl)cc1 | 62 |
| C[C@]12CC[C@H](OC(=O)Cc3ccc(N(CCCl)CCCl)cc3)C[C@@H]1CC[C@@H]1[C@@H]2CC[C@@]2(C)NC(=O)CC[C@@H]12 [ASE, reference compound] | 34 |
| C[C@]12CC[C@H](OC(=O)CCOc3ccc(N(CCCl)CCCl)cc3)CC1=CC(=O)N[C@@H]1[C@@H]2CC[C@]2(C)C(=O)CC[C@@H]12 | 44 |
